target: T1, 人MUC17-Fc蛋白 (human, UniProt Q685J3 4131-4390); assay: ELISA, MUC17-Fc coated, murine antibody titrated
T1 construct: range 4131-4390; No linker is described; also called MUC17抗原; not shown: C-terminal Fc tag
T1 sequence (Q685J3 4131-4390 limits assumed, form in doubt): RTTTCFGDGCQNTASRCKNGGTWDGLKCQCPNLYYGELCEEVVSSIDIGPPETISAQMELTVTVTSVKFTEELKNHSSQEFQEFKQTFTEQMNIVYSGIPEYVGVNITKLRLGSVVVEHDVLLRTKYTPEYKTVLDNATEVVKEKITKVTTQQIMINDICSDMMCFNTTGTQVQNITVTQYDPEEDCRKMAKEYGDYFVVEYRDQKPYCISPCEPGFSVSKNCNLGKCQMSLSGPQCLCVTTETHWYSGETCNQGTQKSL
measured_parameter: EC50 (µg/mL)
Report as a plain number; the unit µg/mL is understood.

51E12 (antibody, V domains shown) VH: QVQLQQSGPELVKPGASVKISCKVSGNAFSLSWMNWVKQRPGQGLEWIGRIYPGDGDSNYNGKFKGKATLTADKSSSTVFMQLSSLTSVDSAVYFCANYYGSSSWFVYWGQGTLVTVSA VL: DVVMTQTPLSLPVSLGDQASISCRSSQSLVHSYGNTYLHWYLQKPGQSPKLLIYKVSNRFSGVPDRFSGSGSGTDFTLKISRVETEDLGVYFCSQSTHFPWTFGGGTKLEIK; 0.0372
56E8 (antibody, V domains shown) VH: QVQLKESGPGLVAPSQSLSITCTVSGFSLTAYGVHWVRQPPGKGLEWLGGIWAGGSTKSNSALMSSLSISKDNSKSQVFLKMNSLQTDDSAMYYCARALFYGYFDVWGAGTTVTVSS VL: DIVMTQSQKFMSTSVGDRVSVTCKASQSVDTNVAWYQQRPGQSPEALIFSASYRYSGVPDRFTGSGSGTDFTLTISNVQSEDLAEYFCQQYNVYPYTFGGGTNLEIK; 0.0276
23F6 (antibody, V domains shown) VH: QVQLKESGPGLVAPSQSLSITCTVSGFSLTAYGVHWVRQPPGKGLEWLGGIWAGGNTQSHSALMSRVSISKDISKRQVFLKMDRLQTDDSAIYYCARALFYGNFDVWGAGTTVTVSS VL: DIVMTQSQRFMSTSVGDRVSVTCKASQSVDTSVAWYQQRPGQSPEALIFSASYRYSGVPDRFTGSGSGTDFTLTISNVQSEDLAEYFCQQYNSYPYTFGGGTNLEMR; 0.0623
11C8 (antibody, V domains shown) VH: QVQLKESGPGLVAPSQSLSITCTVSGFSLTAYGVHWVRQPPGKGLEWLGGIWAGGSTQSNSALMSRLSISKDSSKSQVFLRMNSLQTDDSAMYYCARALFYGNFDVWGAGTTVTVSS VL: DIVMTQSQKFMSTSVGDRVSVTCKASQSVDTSVAWYQQRPGQSPEALIFSASYRYSGVPDRFTGSGSGTDFTLTINNVQSEDLAEYFCQQYNSYPYTFGGGTNLEIK; 0.108

Turning now to a further record.
// query What measured EC50 goes with 8H2 (antibody, V domains shown) VH: EVNLVESGGGLVKPGGSLKLSCAASGFAFSNYDMSWVRQTPEKRLEWVATISGGGSYTYYPDNVKGRFTISRDNAMNTLYLQMSSLRSEDTALYYCASVNWGFPYWGQGTLVTVSA VL: DIVMSQSPSSLAVSIGEKVTMSCKSSQSLLYSRNQKNYLAWYQQKPGQSPILLIYWTSTRESGVPDRFTGSGSGTDFTLTISGVKAEDLAVYYCQQYYTSPWTFGGGTRLEIK ?
// result 0.0556

Reference source: patent CN116284408A
